system: Enterobacter cloacae; conditions: Enterobacter cloacae FADDI-EC001; broth microdilution in CAMHB
Positions of bridges follow the written chain, without caps; N, C: chain ends. Non-standard residues stand in square brackets, D forms with d. Residues, ends and D or L forms follow the SMILES beside them. *: point of attachment. Benzoyl(3,5-Cl2) = O=C(c1cc(Cl)cc(Cl)c1)*; Benzoyl(4-Ph) = O=C(c1ccc(-c2ccccc2)cc1)*; Phenylacetyl(3-Cl) = O=C(Cc1cccc(Cl)c1)*; Benzoyl(2,3-Cl2) = O=C(c1cccc(Cl)c1Cl)*; Benzoyl(3-Cl) = O=C(c1cccc(Cl)c1)*; Dab = NCC[C@H](N)C(=O)O; Abu = CC[C@H](N)C(=O)O; Dap = NC[C@H](N)C(=O)O; PhAc = O=C(Cc1ccccc1)*
measured.metric: Minimum inhibitory concentration, Ec FADDI-EC001 (µg/mL)
Give bare numbers, in µg/mL.

Challenge: Which Minimum inhibitory concentration, Ec FADDI-EC001 value belongs to CC(C)C[C@H]1NC(=O)[C@H](CCN)NC(=O)[C@@H](NC(=O)[C@H](CCN)NC(=O)[C@@H](NC(=O)[C@H](CCN)NC(=O)c2ccc(-c3ccccc3)cc2)[C@@H](C)O)CCNC(=O)[C@H]([C@@H](C)O)NC(=O)[C@H](CCN)NC(=O)[C@H](CCN)NC(=O)[C@H]([C@@H](C)O)NC1=O [Compound 29] ({Benzoyl(4-Ph)}-[Dab]T[Dab][Dab][Dab][dL]T[Dab][Dab]T; lactam 4-C) ?
Response given: 0.5

Challenge: Which Minimum inhibitory concentration, Ec FADDI-EC001 value belongs to CC[C@@H]1NC(=O)[C@@H](CC(C)C)NC(=O)[C@H](CCN)NC(=O)[C@@H](NC(=O)[C@H](CN)NC(=O)[C@@H](NC(=O)[C@H](CCN)NC(=O)Cc2cccc(Cl)c2)[C@@H](C)O)CCNC(=O)[C@H]([C@@H](C)O)NC(=O)[C@H](CCN)NC(=O)[C@H](CCN)NC1=O [Compound 79] ({Phenylacetyl(3-Cl)}-[Dab]T[Dap][Dab][Dab][dL][Abu][Dab][Dab]T; lactam 4-C) ?
Response given: 0.25

Challenge: Which Minimum inhibitory concentration, Ec FADDI-EC001 value belongs to CC[C@@H]1NC(=O)[C@@H](CC(C)C)NC(=O)[C@H](CCN)NC(=O)[C@@H](NC(=O)[C@H](CN)NC(=O)[C@@H](NC(=O)[C@H](CCN)NC(=O)c2cc(Cl)cc(Cl)c2)[C@@H](C)O)CCNC(=O)[C@H]([C@@H](C)O)NC(=O)[C@H](CCN)NC(=O)[C@H](CCN)NC1=O [Compound 96] ({Benzoyl(3,5-Cl2)}-[Dab]T[Dap][Dab][Dab][dL][Abu][Dab][Dab]T; lactam 4-C) ?
Response given: 1

Challenge: Which Minimum inhibitory concentration, Ec FADDI-EC001 value belongs to CC[C@@H]1NC(=O)[C@@H](CC(C)C)NC(=O)[C@H](CCN)NC(=O)[C@@H](NC(=O)[C@H](CN)NC(=O)[C@@H](NC(=O)[C@H](CCN)NC(=O)c2cccc(Cl)c2Cl)[C@@H](C)O)CCNC(=O)[C@H]([C@@H](C)O)NC(=O)[C@H](CCN)NC(=O)[C@H](CCN)NC1=O [Compound 90] ({Benzoyl(2,3-Cl2)}-[Dab]T[Dap][Dab][Dab][dL][Abu][Dab][Dab]T; lactam 4-C) ?
Response given: 0.5

Challenge: Which Minimum inhibitory concentration, Ec FADDI-EC001 value belongs to CC[C@@H]1NC(=O)[C@@H](CC(C)C)NC(=O)[C@H](CCN)NC(=O)[C@@H](NC(=O)[C@H](CN)NC(=O)[C@@H](NC(=O)[C@H](CCN)NC(=O)Cc2ccccc2)[C@@H](C)O)CCNC(=O)[C@H]([C@@H](C)O)NC(=O)[C@H](CCN)NC(=O)[C@H](CCN)NC1=O [Compound 78] (PhAc-[Dab]T[Dap][Dab][Dab][dL][Abu][Dab][Dab]T; lactam 4-C) ?
Response given: 0.25

Hello, I would appreciate it if you could give Minimum inhibitory concentration, Ec FADDI-EC001 for each entry below.
1. CC[C@@H]1NC(=O)[C@@H](CC(C)C)NC(=O)[C@H](CCN)NC(=O)[C@@H](NC(=O)[C@H](CN)NC(=O)[C@@H](NC(=O)[C@H](CCN)NC(=O)c2cccc(Cl)c2)[C@@H](C)O)CCNC(=O)[C@H]([C@@H](C)O)NC(=O)[C@H](CCN)NC(=O)[C@H](CCN)NC1=O [Compound 88] ({Benzoyl(3-Cl)}-[Dab]T[Dap][Dab][Dab][dL][Abu][Dab][Dab]T; lactam 4-C)
2. CC(C)C[C@H]1NC(=O)[C@H](CCN)NC(=O)[C@@H](NC(=O)[C@H](CCN)NC(=O)[C@@H](NC(=O)[C@H](CCN)NC(=O)Cc2ccccc2)[C@@H](C)O)CCNC(=O)[C@H]([C@@H](C)O)NC(=O)[C@H](CCN)NC(=O)[C@H](CCN)NC(=O)[C@H]([C@@H](C)O)NC1=O [Compound 30] (PhAc-[Dab]T[Dab][Dab][Dab][dL]T[Dab][Dab]T; lactam 4-C)
3. CC(C)C[C@H]1NC(=O)[C@H](CCN)NC(=O)[C@@H](NC(=O)[C@H](CN)NC(=O)[C@@H](NC(=O)[C@H](CCN)NC(=O)c2cc(Cl)cc(Cl)c2)[C@@H](C)O)CCNC(=O)[C@H]([C@@H](C)O)NC(=O)[C@H](CCN)NC(=O)[C@H](CCN)NC(=O)[C@H]([C@@H](C)O)NC1=O [Compound 118] ({Benzoyl(3,5-Cl2)}-[Dab]T[Dap][Dab][Dab][dL]T[Dab][Dab]T; lactam 4-C)

Response given:
1
2
1

FYI, the data here is from patent USRE48335E1.
